Reference source for all entries: patent US20250313563A1

measured target: GSK3α (GST-full length GSK3α) (Homo sapiens (Human), UniProt P49840)
Sequence (P49840 whole entry): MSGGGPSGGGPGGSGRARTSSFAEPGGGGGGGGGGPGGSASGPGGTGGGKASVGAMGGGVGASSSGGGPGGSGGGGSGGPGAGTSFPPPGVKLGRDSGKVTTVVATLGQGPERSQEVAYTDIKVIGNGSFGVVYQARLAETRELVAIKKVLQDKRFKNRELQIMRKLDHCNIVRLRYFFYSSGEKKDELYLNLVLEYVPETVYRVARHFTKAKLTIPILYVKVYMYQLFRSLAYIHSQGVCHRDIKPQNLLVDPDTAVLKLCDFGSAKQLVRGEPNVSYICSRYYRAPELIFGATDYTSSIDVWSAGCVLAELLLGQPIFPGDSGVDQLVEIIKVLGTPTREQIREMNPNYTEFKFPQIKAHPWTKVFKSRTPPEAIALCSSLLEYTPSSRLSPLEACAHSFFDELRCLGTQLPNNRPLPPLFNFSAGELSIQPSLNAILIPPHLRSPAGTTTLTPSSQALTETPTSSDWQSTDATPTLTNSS
assay explanation: GSK3α TR-FRET kinase assay
Type: biochemical
condition details: 1 nM GSK3α, 4 μM ATP, 30 minute preincubation, Table 16; read-out: GSK3-A TR-FRET BIOCHEMICAL (TR-FRET); IC50
readout type: IC50

Use these answered entries as a reference point.
compound: CCC1(c2cc(N(C)C(C)=O)ccc2F)C2=C(CC(C)(C)CC2=O)Nc2n[nH]cc21 (stereo not drawn) [Compound 913124]
IC50: 100 to 1000 nM
--
compound: CCC1(c2cccc(N(C)c3nc(C)cc(C)n3)c2)C2=C(CC(C)(C)CC2=O)Nc2n[nH]cc21 (stereo not drawn) [Compound 926304]
IC50: 100 to 1000 nM
--
compound: CCC1(c2cccc(-c3c(C)nn(C)c3C)c2)C2=C(CC(C)(C)CC2=O)Nc2n[nH]c(C)c21 (stereo not drawn) [Compound 883995]
IC50: ≤ 100 nM
--
compound: CC[C@]1(c2cccc(C(F)(F)F)c2)C2=C(CC(C)(C)NC2=O)Nc2n[nH]c(F)c21 [Compound 957518]
IC50: ≤ 100 nM
--
compound: CC[C@]1(c2cccc(-c3ccnc4c(C)cccc34)c2)C2=C(CC(C)(C)NC2=O)Nc2n[nH]cc21 [Compound 952909]
IC50: ≤ 100 nM
--
compound: CC[C@@H]1C[C@]2(CCO1)C1=C(CC(C)(C)CC1=O)Nc1n[nH]cc12 [Compound 907328]
IC50: 100 to 1000 nM
--
compound: CCC1(c2cc(-c3ccncc3)ccc2C)C2=C(CC(C)(C)CC2=O)Nc2n[nH]cc21 (stereo not drawn) [Compound 893323]
IC50: ≤ 100 nM
--
compound: CCC1(c2cccc(-c3ccncc3F)c2)C2=C(CC(C)(C)NC2=O)Nc2n[nH]c(F)c21 (stereo not drawn) [Compound 949651]
IC50: ≤ 100 nM

// recorded IC50 for CC[C@@]1(c2cccc(-c3ccnc(C)c3)c2)C2=C(CC(C)(C)C2=O)Nc2n[nH]cc21 [Compound 950282] : ≤ 100 nM

// recorded IC50 for CCC1(c2cccc(S(=O)(=O)CC3CC3)c2)C2=C(CC(C)(C)CC2=O)Nc2n[nH]cc21 (stereo not drawn) [Compound 917150] : ≤ 100 nM

// recorded IC50 for CCC1(c2cccc(C)c2)C2=C(CC(C)(C)CC2=O)Nc2n[nH]c(C(F)(F)F)c21 (stereo not drawn) [Compound 883873] : ≤ 100 nM

// recorded IC50 for CC[C@]1(c2cccc(-c3cn(C)nc3C)c2)C2=C(CC(C)(C)CC2=O)Nc2n[nH]c(C)c21 [Compound 913035] : ≤ 100 nM
